Target: Cytochrome P450 3A4 (Homo sapiens)
Assay: Cytochrome panel assay with activity outcomes
Settings: recombinant CYP, pro-luciferin dealkylation, luminescence, p450-cyp3a4; series mostly up to 57.1 µM
Out of some 16,000 compounds screened, about 5,100 (32%) were called active. Inconclusive results (about 25%) are left out. Calls come from the whole dose curve; as a rule, active = well fitted curve in the direction sought with a large enough effect; inconclusive = small, poorly fitted or top-dose-only effect, or effect the other way; inactive = no such curve, though single readings can be large or run the other way. The list shows a part of the results.
Give one outcome, nothing more. List: true (active), false (inactive)

Example results:
| molecule | label-value |
| --- | --- |
| COc1ccc(C(=O)Nc2ccc(Cl)cc2C(=O)NCCN2CCOCC2)cc1 | true |
| O=C(c1cnccn1)N1CCC[C@@]2(CCN(Cc3cc(C(F)(F)F)cc(C(F)(F)F)c3)C2)C1 | true |
| COCCNC(=O)c1sc2nc(-c3ccccc3)cn2c1C | false |
| COc1ccc(-c2cn3c(C)c(C(=O)NCCN4CCOCC4)sc3n2)cc1 | true |
| O=C(c1cnccn1)N1CCC2(CC1)CN(Cc1cc(C(F)(F)F)cc(C(F)(F)F)c1)C2 | false |
| COc1ccc(CCN(C)CCC(=O)Nc2c(C)cc(C)cc2C)cc1OC | true |
| Cc1cccc(OCC(=O)N2CCC(N3CCCCCC3)CC2)c1 | false |
| O=C(c1cnccn1)N1CCC[C@@]2(CCN(Cc3ccncc3)C2)C1 | true |
| COc1cccc(C(=O)NCCN2CCOCC2)c1 | false |
| COc1ccc(C2=NOC(C(=O)NCCN3CCOCC3)C2)cc1 (stereo unspecified) | false |

Query block: // param item: COc1cc(/C=N/O)cc(Br)c1OCc1cccc(Cl)c1 ; yields the recorded call
Result block: true
